- Study system: IRAK4 (Homo sapiens (Human))
pIC50: −log10 of the molar value.
Entry flag: 1 if pIC50 reaches 8; 0 if it does not.

>>> group_label("CC(C)Oc1cc2c(OC[C@@H]3CCC(=O)N3)ncc(-c3cnn([C@H]4C[C@@H](N(C)C)C4)c3)c2cc1C(N)=O")
1
>>> group_label("CCO[C@H]1CC[C@@H](C#Cc2cnc(OC[C@@H]3CCC(=O)N3)c3cc(OC(C)C)c(C(N)=O)cc23)CC1")
1
>>> group_label("CC(C)Oc1cc2c(OC[C@@H]3CCC(=O)N3)ncc(-c3cnn(C4CCOCC4)c3)c2cc1C(N)=O")
0

====

- Study system: IRAK4 (Homo sapiens (Human), UniProt Q9NWZ3)
- Sequence (Q9NWZ3 whole entry): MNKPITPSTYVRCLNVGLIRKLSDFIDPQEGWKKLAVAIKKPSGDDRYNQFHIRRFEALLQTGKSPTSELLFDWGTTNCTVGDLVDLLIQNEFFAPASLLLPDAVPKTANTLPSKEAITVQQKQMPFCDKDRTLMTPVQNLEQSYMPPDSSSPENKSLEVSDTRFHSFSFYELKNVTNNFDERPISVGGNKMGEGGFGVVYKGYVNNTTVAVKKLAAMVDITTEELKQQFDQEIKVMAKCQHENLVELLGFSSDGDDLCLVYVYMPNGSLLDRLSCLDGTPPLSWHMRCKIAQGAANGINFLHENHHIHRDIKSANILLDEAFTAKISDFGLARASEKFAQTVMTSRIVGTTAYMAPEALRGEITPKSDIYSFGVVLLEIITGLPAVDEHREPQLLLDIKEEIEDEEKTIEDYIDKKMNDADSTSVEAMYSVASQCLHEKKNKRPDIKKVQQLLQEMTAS
pIC50: −log10 of the molar value.
Quantity measured: pIC50

>>> observed_value("CC(C)Oc1cc2c(OC[C@@H]3CCC(=O)N3)ncc(C#CC3(O)CCN(C(=O)OC(C)(C)C)CC3)c2cc1C(N)=O")
7.39
>>> observed_value("CC(C)Oc1cc2c(OC[C@@H]3CCC(=O)N3)ncc(C#CCCN3CCOCC3)c2cc1C(N)=O")
7.91
>>> observed_value("CC(C)Oc1cc2c(O[C@@H]3CCCNC3)ncc(C#CCC3CCOCC3)c2cc1C(N)=O")
7.28
>>> observed_value("CC(C)Oc1cc2c(OC[C@@H]3CC(F)(F)C(=O)N3)ncc(C#CC3(O)CCN(C)CC3)c2cc1C(N)=O")
8.35
>>> observed_value("CC(C)Oc1cc2c(OC[C@@H]3CCC(=O)N3)ncc(-c3cnn([C@H]4CC[C@@](C)(O)CC4)c3)c2cc1C(N)=O")
7.42
>>> observed_value("CCO[C@H]1CC[C@H](C#Cc2cnc(OC[C@H]3NC(=O)[C@@H](F)[C@H]3CC)c3cc(OC(C)C)c(C(N)=O)cc23)CC1")
6.41
>>> observed_value("CCO[C@H]1CC[C@H](n2cc(-c3cnc(O[C@@H]4CCCN(C(=O)CC#N)C4)c4cc(OC(C)C)c(C(N)=O)cc34)cn2)CC1")
8.17
>>> observed_value("CCO[C@H]1C[C@@H](n2cc(-c3cnc(OC[C@@H]4CCC(=O)N4)c4cc(OC(C)C)c(C(N)=O)cc34)cn2)C1")
8.19
>>> observed_value("CC(C)Oc1cc2c(O[C@@H]3CCCN(C(=O)CC#N)C3)ncc(C#CC3CCNCC3)c2cc1C(N)=O")
8.10
>>> observed_value("CC(C)Oc1cc2c(OC[C@@H]3CC(F)(F)C(=O)N3)ncc(C#CC3(O)CCOCC3)c2cc1C(N)=O")
8.28
>>> observed_value("CC(C)Oc1cc2c(OC[C@@H]3CCC(=O)N3)ncc(C#CC3CCNCC3)c2cc1C(N)=O")
8.77
>>> observed_value("CC(C)Oc1cc2c(OC[C@@H]3CCC(=O)N3)ncc(Br)c2cc1C(N)=O")
7.47
>>> observed_value("CC(C)Oc1cc2c(OC[C@@H]3CCC(=O)N3)ncc(-c3cnn(C4CCN(C(=O)OC(C)(C)C)CC4)c3)c2cc1C(N)=O")
7.68
>>> observed_value("CC(C)Oc1cc2c(OC[C@@H]3CC(F)(F)C(=O)N3)ncc(C#C[C@H]3CC[C@](C)(O)CC3)c2cc1C(N)=O")
8.03

Values compiled from patent US20230391748A1.
